B1: tRNA (parent)
chain: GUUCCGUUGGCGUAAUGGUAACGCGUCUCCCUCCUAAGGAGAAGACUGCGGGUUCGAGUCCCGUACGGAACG

Variants of: B1
protocolSummary: yeast fitness relative to wild type (ratio to wild type); higher = fitter; tRNA-Arg(CCU), competitive growth, 37 C, YPD
This sample holds only a part of the variants without activity.
If the reported yeast fitness equals or exceeds 0.7, assign class 1. If not, assign class 0.

GUUCCGGUGGCGUAAUGGUAACGCGUCUCCCUCCAAAGGAGAAGACUGGGGGUUCGAGUACCGUACGGAACG [U7G U35A C49G C60A] :: class 0
GUACCGUUGCCGUAAUGGUAACGCGUCUCCCUCCUAAGGAGAAGACUGCGGGUUCGGGUCCCGUAUGGAACG [U3A G10C A57G C66U] :: class 0
GUUCCGUUGGCGUAAUGGUAACGCGUCUCCCUCCUAAGGAGAGGACUGCGGGUUCGAGUGCCGUACGGAACG [A43G C60G] :: class 1
GUUCCGUUGGCGUAAUGGUAACGCGUCUCCCUCCUAAGGAGAAGAUUGCGGGUUCGAGUCCCGUACCGAACG [C46U G67C] :: class 1
GUUUCGUUGGCGUAAUGGUAACGCGUCUCCCUCCUUAGGAGAAGCCUGCGGGUUCGAGUCGCGUACGGACCG [C4U A36U A45C C61G A70C] :: class 1

Could you please find out whether GUUGCGUUGGCCUAAUGGUAACGCGUCUCCCUCCAAAGGAGAAGACUGGGGGUUCGAGUCCCGUAUGGAACG [C4G G12C U35A C49G C66U] has yeast fitness that meets 0.7 or exceeds it?
class 0

Could you please find out whether GUUCCGUUGGCGUAAUGGUAACGCGUCUGCCUCCUAAGGAGAAGACUGCGGGUUCGAGUCACGUACGGAACG [C29G C61A] has yeast fitness that meets 0.7 or exceeds it?
class 0

Could you please find out whether GUUCGGUUGGCGUAAUGGUCACGCGUCUGCCUCCUAACGAGAAGACUGCGGGUUCGAGUCCCGUACGGAACG [C5G A20C C29G G38C] has yeast fitness that meets 0.7 or exceeds it?
class 0

Could you please find out whether GUUCCCUUGGCGUAAUGGUAACGCGUCUCCCUCCUAAGGAGAAGGCUGCGGGUUCGAAUCCCGUACGGAACG [G6C A45G G58A] has yeast fitness that meets 0.7 or exceeds it?
class 0

Could you please find out whether GUGCCGUUGGCGUAAUGGUAACGCGUCUCCCUCCUAAGGAGAAGGCUGCGGGUUCGAGUCCCGUACGGUACG [U3G A45G A69U] has yeast fitness that meets 0.7 or exceeds it?
class 1

Could you please find out whether GUUCCGUUGGCGUAGUGGUAACGCGUCUCCCACCUAAGGAGAAGACUGCGGGUUCGAGUCCCGUACGGAACG [A15G U32A] has yeast fitness that meets 0.7 or exceeds it?
class 0

Could you please find out whether GUUCCGUUAGCGUAAUGGUAACGCGUCUCUCUCCUAAGGAGAAGACUGCGGGUUCGGGUCCCGUACGGAACG [G9A C30U A57G] has yeast fitness that meets 0.7 or exceeds it?
class 0

Could you please find out whether GUUCCGUUGACGUAAUCGUAACGCGUCUCCUUCCUAAGGAGAAGACUGCGGGUUUGAGUACCGUACGGAACG [G10A G17C C31U C55U C60A] has yeast fitness that meets 0.7 or exceeds it?
class 0

Could you please find out whether GUUCCGUUGGCGUAAUGGUGAGGCGUCUCCCUCCUAAGGAGAAGACUGCGGGUACGAGUCCCGUACGGAACG [A20G C22G U54A] has yeast fitness that meets 0.7 or exceeds it?
class 0

Could you please find out whether GUUCCGUUGGCGUAAUGGUAACGUGUCUCCCUCCUAAGGCGAAGACUACGGGUUCGAGUCCCGUACGGAACG [C24U A40C G48A] has yeast fitness that meets 0.7 or exceeds it?
class 0

Could you please find out whether GUUAGGUUGGCGUAAUGGUAAUGCGUCUCCCUCCUAAGGAGAAGACUGCGGGUUCGAGUCCCGUACGGAACG [C4A C5G C22U] has yeast fitness that meets 0.7 or exceeds it?
class 0

The measurements presented in this section are drawn from the RNAGym collection of RNA variant scans (doi:10.1126/science.aae0568).
